Catalogue of TF1 Bioassay IC50 (proliferation, 150 pM hIL-13) values
Target: T1, hIL-4R on cells (STAT6-transfected HEK293, TF1, TF1/A12) (human, UniProt P24394 26-825)
T1 sequence (looked up): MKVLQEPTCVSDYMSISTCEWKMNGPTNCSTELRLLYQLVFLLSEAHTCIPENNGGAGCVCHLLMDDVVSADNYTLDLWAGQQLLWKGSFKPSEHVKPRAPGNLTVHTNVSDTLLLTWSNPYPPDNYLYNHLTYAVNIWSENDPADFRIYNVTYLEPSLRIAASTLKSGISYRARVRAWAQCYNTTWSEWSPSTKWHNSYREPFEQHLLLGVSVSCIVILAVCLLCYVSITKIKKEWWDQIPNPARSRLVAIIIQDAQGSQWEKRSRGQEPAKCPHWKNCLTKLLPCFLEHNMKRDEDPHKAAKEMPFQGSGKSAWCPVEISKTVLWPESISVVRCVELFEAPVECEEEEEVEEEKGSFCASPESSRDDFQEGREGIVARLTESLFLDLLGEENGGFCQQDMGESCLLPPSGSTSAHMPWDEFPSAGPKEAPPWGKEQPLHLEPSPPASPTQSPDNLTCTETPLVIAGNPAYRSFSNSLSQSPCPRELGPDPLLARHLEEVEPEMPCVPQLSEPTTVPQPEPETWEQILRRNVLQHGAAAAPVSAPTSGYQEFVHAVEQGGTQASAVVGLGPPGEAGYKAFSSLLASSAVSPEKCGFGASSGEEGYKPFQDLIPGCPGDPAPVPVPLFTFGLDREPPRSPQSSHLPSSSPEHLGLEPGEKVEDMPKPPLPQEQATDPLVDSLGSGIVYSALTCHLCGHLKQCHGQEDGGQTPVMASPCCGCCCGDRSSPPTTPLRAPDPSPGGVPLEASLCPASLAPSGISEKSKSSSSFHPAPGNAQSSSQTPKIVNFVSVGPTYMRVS
Test: cell-based or functional assay
OUTCOME_MEASURE: TF1 Bioassay IC50 (proliferation, 150 pM hIL-13) (nM)

INSERT INTO measurements (binder, measure_unit, data_value) VALUES
  ('VAK7G8-5 (antibody, V domains shown, Apparently tested with mouse constant region (anti-mouse IgG capture/detection)) VH: QVRLVESGGGVVQPGGSLRLSCTASGFIFRSYGMHWVRQAPGRGLEWVAVISYDGSKTFYVDSVKVRFTISRDNSKNTLYLEMNSLRVDDTAVYFCVKEGRSGSWFDPWGQGTLVAVSS VL: DIHMTQSPSSLSASVGDRVTITCRASQAINNFLAWFQQKPGKTPKSLIFATSSLQSGVPSRFSGSGSGTDFTLTISSLQPEDFATYYCQQYNSHPWTFGQGTKVEIR', 'nM', 0.36),
  ('VAK9C6-11 (antibody, V domains shown, Apparently tested with mouse constant region (anti-mouse IgG capture/detection)) VH: QVQLVESGGGVVQPGRSLRLSCAASGFTFSSYGMHWVRQAPGKGLEWVTVISYDGSIKYYVDSVKGRFTISRDNSKNTLFLQMNSLRVEDTAVYYCAKEGRKYGMDVWGQGTTVTVSS VL: DIQMTQSPSTLSASVGDRVTITCRASQIISSLLVWYQQKPGKAPKLLIYKASSLESGVPSRFSGSGSGTEFTLTISSLQPDDFATYYCQQYHSYMYTFGQGTKLEIK', 'nM', 1);
